Cited source for all entries: patent US8969565B2

molecular target: AAK1 (Homo sapiens, UniProt Q2M2I8); construct: HA; expressed in transfected cells; host or cells: HEK293F; assay: HEK281 cell-based assay (phospho-mu2 Western blot in transfected HEK293F cells); settings: 3 hours incubation, read-out: CBA IC50
Sequence (Q2M2I8 1-863 isoform Q2M2I8-2): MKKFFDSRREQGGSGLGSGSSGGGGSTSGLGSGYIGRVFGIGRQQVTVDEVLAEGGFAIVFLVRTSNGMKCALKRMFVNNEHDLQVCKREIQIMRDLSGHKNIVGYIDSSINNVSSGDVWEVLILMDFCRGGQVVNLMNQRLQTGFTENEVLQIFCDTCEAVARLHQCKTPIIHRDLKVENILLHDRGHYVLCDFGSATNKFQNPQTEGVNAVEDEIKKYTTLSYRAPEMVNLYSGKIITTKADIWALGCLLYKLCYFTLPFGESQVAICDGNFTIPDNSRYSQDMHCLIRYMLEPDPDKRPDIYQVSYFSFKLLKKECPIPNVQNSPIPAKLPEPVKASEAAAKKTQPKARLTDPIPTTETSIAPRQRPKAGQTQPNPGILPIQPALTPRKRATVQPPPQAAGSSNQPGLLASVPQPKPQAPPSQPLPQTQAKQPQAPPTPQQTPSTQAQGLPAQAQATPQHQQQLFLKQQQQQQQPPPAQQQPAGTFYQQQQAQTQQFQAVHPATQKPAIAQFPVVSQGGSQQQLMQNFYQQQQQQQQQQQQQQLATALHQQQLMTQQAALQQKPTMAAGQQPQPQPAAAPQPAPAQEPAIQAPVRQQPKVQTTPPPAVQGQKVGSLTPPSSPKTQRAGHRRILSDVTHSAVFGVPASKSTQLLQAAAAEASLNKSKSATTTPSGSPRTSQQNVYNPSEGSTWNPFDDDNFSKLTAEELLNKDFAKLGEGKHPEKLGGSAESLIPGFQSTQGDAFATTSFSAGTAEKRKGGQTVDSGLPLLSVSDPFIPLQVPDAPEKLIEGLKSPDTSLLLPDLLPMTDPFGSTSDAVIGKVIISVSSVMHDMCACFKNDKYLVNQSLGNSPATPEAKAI
We begin with a simple list: items and their reported IC50.

Some solved cases for reference:
In [3]: df
Out[3]:
                                   compound     result
0  COc1ccccc1-c1cnc2ccc(NC[C@@H]3CCCN3C(=O)NC3CCCC3)nn12  ≤ 1000 nM
1  COc1cnccc1-c1cnc2ccc(NC[C@@H]3CCCN3C(=O)CC(C)C)nn12    ≤ 10 nM
2          CCCCNc1ccc2ncc(-c3sc(C)nc3C)n2n1   ≤ 100 nM
3  CCOC(=O)N(C)CCNc1ccc2ncc(-c3ccc(C(=O)NC)s3)n2n1   ≤ 100 nM
4    CC(C)COCCNc1ccc2ncc(-c3ccc(CN)cc3)n2n1   ≤ 100 nM
5  COC(=O)N1CCC[C@H]1CNc1ccc2ncc(-c3ccncc3OC)n2n1   ≤ 100 nM

// switching to the query compound
Name the recorded IC50 for CCCCNc1ccc2ncc(-c3ccc(C(=O)N4CCC(N)CC4)cc3)n2n1 .
≤ 1000 nM
